test system: 186277-243-T-J2-PDC complex spheroid viability; test: Anticancer human tumor 186277-243-T-J2-PDC patient-derived colon adenocarcinoma cell line growth inhibition [GQUAD]; settings: second compound 1 µM; first compound 0.316 µM; stronger effect = lower value
Answer each item with its documented viability, T/C.

Sample answers from the record:
[[record]]
compound = "C=CC(=O)N1CCN(c2nc(=O)n(-c3c(C)ccnc3C(C)C)c3nc(-c4c(O)cccc4F)c(F)cc23)C(C)C1 (stereo unspecified) + Cc1[nH]c2ccc(F)cc2c1-c1nc2c3cccnc3c3ncccc3c2[nH]1"
target_desc = "186277-243-T-J2-PDC complex spheroid viability"
parameter_measured = "viability, T/C"
recorded_measurement = "107%"

[[record]]
compound = "O=c1[nH]cc(F)c(=O)[nH]1 + Cc1[nH]c2ccc(F)cc2c1-c1nc2c3cccnc3c3ncccc3c2[nH]1"
target_desc = "186277-243-T-J2-PDC complex spheroid viability"
parameter_measured = "viability, T/C"
recorded_measurement = "93.5%"

[[record]]
compound = "O=c1[nH]cc(F)c(=O)[nH]1 + CN(C)c1ccc(Nc2c3ccc(NC(=O)CCN4CCCC4)cc3nc3cc(NC(=O)CCN4CCCC4)ccc23)cc1"
target_desc = "186277-243-T-J2-PDC complex spheroid viability"
parameter_measured = "viability, T/C"
recorded_measurement = "98.6%"

[[record]]
compound = "C=CC(=O)N1CCN(c2nc(=O)n(-c3c(C)ccnc3C(C)C)c3nc(-c4c(O)cccc4F)c(F)cc23)C(C)C1 (stereo unspecified) + Cc1cnc(CNC(=O)c2c(=O)c3ccc(N4CCCN(C)CC4)nc3n3c2sc2ccccc23)cn1"
target_desc = "186277-243-T-J2-PDC complex spheroid viability"
parameter_measured = "viability, T/C"
recorded_measurement = "65.6%"

[[record]]
compound = "CC[C@@]1(O)C(=O)OCc2c1cc1n(c2=O)Cc2cc3c(CN(C)C)c(O)ccc3nc2-1 + Cc1cnc(CNC(=O)c2c(=O)c3ccc(N4CCCN(C)CC4)nc3n3c2sc2ccccc23)cn1"
target_desc = "186277-243-T-J2-PDC complex spheroid viability"
parameter_measured = "viability, T/C"
recorded_measurement = "38.2%"


// for each compound below, give its viability, T/C
1. CC(C)n1c(=O)n(C)c2cnc3cc(F)c(-c4ccc(OCCCN5CCCCC5)nc4)cc3c21 + Cc1[nH]c2ccc(F)cc2c1-c1nc2c3cccnc3c3ncccc3c2[nH]1
2. C#Cc1c(F)ccc2cc(O)cc(-c3ncc4c(N5CC6CCC(C5)N6)nc(OCC56CCCN5CC(F)C6)nc4c3F)c12 (stereo unspecified) + CN(C)c1ccc(Nc2c3ccc(NC(=O)CCN4CCCC4)cc3nc3cc(NC(=O)CCN4CCCC4)ccc23)cc1
3. Cc1cccc(N(C)C(=O)C2C(O)CCN2c2nc(C)cc(C(F)(F)F)c2C#N)c1 (stereo unspecified) + CN(C)c1ccc(Nc2c3ccc(NC(=O)CCN4CCCC4)cc3nc3cc(NC(=O)CCN4CCCC4)ccc23)cc1
4. CC1COCCN1c1cc(-c2ccnn2C)c2ccnc(-c3ccn[nH]3)c2n1 (stereo unspecified) + CN(C)c1ccc(Nc2c3ccc(NC(=O)CCN4CCCC4)cc3nc3cc(NC(=O)CCN4CCCC4)ccc23)cc1

1: 104%; 2: 21.3%; 3: 98.9%; 4: 6.08%

// for each compound below, give its viability, T/C
1. CC1COCCN1c1cc(C2(S(C)(=N)=O)CC2)nc(-c2ccnc3[nH]ccc23)n1 (stereo unspecified) + Cc1cnc(CNC(=O)c2c(=O)c3ccc(N4CCCN(C)CC4)nc3n3c2sc2ccccc23)cn1
2. C=CCn1c(=O)c2cnc(Nc3ccc(N4CCN(C)CC4)cc3)nc2n1-c1cccc(C(C)(C)O)n1 + Cc1[nH]c2ccc(F)cc2c1-c1nc2c3cccnc3c3ncccc3c2[nH]1

1. 64.6%
2. 13.7%

* * *

system: 186277-243-T-J2-PDC complex spheroid viability; experiment: Anticancer human tumor 186277-243-T-J2-PDC cell line growth inhibition [GQUAD]; conditions: second compound 3.16 µM; first compound 0.000999 µM; stronger effect = lower value;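 also: spheroids exposed to drugs for 7 days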;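 as to viability, T/C: 100% = DMSO vehicle control viability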
Answer each item with its documented viability, T/C.
Numbers only, in %.

Sample answers from the record:
[[record]]
compound = "Cn1ncnc1[C@H]1c2n[nH]c(=O)c3cc(F)cc(c23)N[C@@H]1c1ccc(F)cc1 + Cc1cnc(CNC(=O)c2c(=O)c3ccc(N4CCCN(C)CC4)nc3n3c2sc2ccccc23)cn1"
recorded_measurement = 48.1

[[record]]
compound = "Cn1ncnc1[C@H]1c2n[nH]c(=O)c3cc(F)cc(c23)N[C@@H]1c1ccc(F)cc1 + CN(C)c1ccc(Nc2c3ccc(NC(=O)CCN4CCCC4)cc3nc3cc(NC(=O)CCN4CCCC4)ccc23)cc1"
recorded_measurement = 101

[[record]]
compound = "CC[C@@]1(O)C(=O)OCc2c1cc1n(c2=O)Cc2cc3c(CN(C)C)c(O)ccc3nc2-1 + Cc1cnc(CNC(=O)c2c(=O)c3ccc(N4CCCN(C)CC4)nc3n3c2sc2ccccc23)cn1"
recorded_measurement = 49.6


// for each compound below, give its viability, T/C
1. CC[C@@]1(O)C(=O)OCc2c1cc1n(c2=O)Cc2cc3c(CN(C)C)c(O)ccc3nc2-1 + Cc1[nH]c2ccc(F)cc2c1-c1nc2c3cccnc3c3ncccc3c2[nH]1
2. CCc1c2c(nc3ccc(O)cc13)-c1cc3c(c(=O)n1C2)COC(=O)[C@]3(O)CC + Cc1cnc(CNC(=O)c2c(=O)c3ccc(N4CCCN(C)CC4)nc3n3c2sc2ccccc23)cn1
3. CC[C@@]1(O)C(=O)OCc2c1cc1n(c2=O)Cc2cc3c(CN(C)C)c(O)ccc3nc2-1 + CN(C)c1ccc(Nc2c3ccc(NC(=O)CCN4CCCC4)cc3nc3cc(NC(=O)CCN4CCCC4)ccc23)cc1
4. CCc1c2c(nc3ccc(O)cc13)-c1cc3c(c(=O)n1C2)COC(=O)[C@]3(O)CC + CN(C)c1ccc(Nc2c3ccc(NC(=O)CCN4CCCC4)cc3nc3cc(NC(=O)CCN4CCCC4)ccc23)cc1
5. Cc1[nH]c2ccccc2c1CCNCc1ccc(/C=C/C(=O)NO)cc1 + Cc1cnc(CNC(=O)c2c(=O)c3ccc(N4CCCN(C)CC4)nc3n3c2sc2ccccc23)cn1
6. Cc1[nH]c2ccccc2c1CCNCc1ccc(/C=C/C(=O)NO)cc1 + Cc1[nH]c2ccc(F)cc2c1-c1nc2c3cccnc3c3ncccc3c2[nH]1

118
33.5
96.8
92.8
35
101

* * *

system: 186277-243-T-J2-PDC complex spheroid viability; test: Anticancer human tumor 186277-243-T-J2-PDC cell line growth inhibition [GQUAD]; conditions: curve of first compound; second compound 0.1 µM;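 also: spheroids exposed to drugs for 7 days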
parameter measured: IC50

[[record]]
compound = "CC[C@@]1(O)C(=O)OCc2c1cc1n(c2=O)Cc2cc3c(CN(C)C)c(O)ccc3nc2-1 + Cc1[nH]c2ccc(F)cc2c1-c1nc2c3cccnc3c3ncccc3c2[nH]1"
recorded_measurement = "> 0.316 µM"

[[record]]
compound = "O=c1[nH]cc(F)c(=O)[nH]1 + CN(C)c1ccc(Nc2c3ccc(NC(=O)CCN4CCCC4)cc3nc3cc(NC(=O)CCN4CCCC4)ccc23)cc1"
recorded_measurement = "> 10 µM"

[[record]]
compound = "COc1ncnc(C2CC2)c1-c1ncc2cnn(Cc3ccc(-c4nc(C(F)(F)F)cn4C(C)C)cc3)c2n1 + Cc1[nH]c2ccc(F)cc2c1-c1nc2c3cccnc3c3ncccc3c2[nH]1"
recorded_measurement = "> 10 µM"


Need IC50 of C=CC(=O)N1CCN(c2nc(=O)n(-c3c(C)ccnc3C(C)C)c3nc(-c4c(O)cccc4F)c(F)cc23)C(C)C1 (centres undefined) + CN(C)c1ccc(Nc2c3ccc(NC(=O)CCN4CCCC4)cc3nc3cc(NC(=O)CCN4CCCC4)ccc23)cc1 , thanks.
> 10 µM

* * *

Tested on: 186277-243-T-J2-PDC complex spheroid viability
Test: Anticancer human tumor 186277-243-T-J2-PDC cell line growth inhibition [GQUAD];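 also: spheroids exposed to drugs for 7 days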
Conditions: curve of first compound; second compound 1 µM
Source text: DNA G-quadruplex Stabilizer Agents in Combinations in Complex Spheroids A high-throughput screen of multi-cell type tumor spheroids was designed to identify active combinations of DNA G-quadruplex stabilizer agents and targeted small molecules. […] Compounds. […] If the clinical Cmax for an agent had not been determined, the highest concentration tested was 10 microM. […]
pIC50: −log10 of the molar value.
Answer each item with its documented pIC50.

Sample answers from the record:
[[record]]
compound = "CC1COCCN1c1cc(-c2ccnn2C)c2ccnc(-c3ccn[nH]3)c2n1 (stereo not drawn) + CN(C)c1ccc(Nc2c3ccc(NC(=O)CCN4CCCC4)cc3nc3cc(NC(=O)CCN4CCCC4)ccc23)cc1"
target_desc = "186277-243-T-J2-PDC complex spheroid viability"
recorded_measurement = "> 7.50"

[[record]]
compound = "CC1COCCN1c1cc(C2(O)CC3CCC(C2)O3)c2cnn(-c3ccn[nH]3)c2n1 (stereo not drawn) + CN(C)c1ccc(Nc2c3ccc(NC(=O)CCN4CCCC4)cc3nc3cc(NC(=O)CCN4CCCC4)ccc23)cc1"
target_desc = "186277-243-T-J2-PDC complex spheroid viability"
recorded_measurement = "> 7.50"


Need pIC50 of COc1ncnc(C2CC2)c1-c1ncc2cnn(Cc3ccc(-c4nc(C(F)(F)F)cn4C(C)C)cc3)c2n1 + CN(C)c1ccc(Nc2c3ccc(NC(=O)CCN4CCCC4)cc3nc3cc(NC(=O)CCN4CCCC4)ccc23)cc1 , thanks.
< 5.00
